# credit: PubChem BioAssay AID686920

Test system: A673 NR0B1-luciferase reporter, viability-normalised luminescence
Experiment: suppressors of NR0B1-promoter luciferase reporter, dose response, EWS/Fli inhibitor project, luciferase luminescence, A673 cells, cherry-pick (AID 686920)
This listing pairs compounds with measured AC35.

Guide cases for AC35, answers given:
O=C(O)CN1C(=O)/C(=C\c2ccccc2OCc2ccc(Cl)cc2Cl)SC1=S : 13.7 µM
COc1ccc(/C=C/C(=O)c2ccc(C(=O)/C=C/c3ccc(OC)c(OC)c3)cc2)cc1OC : 6.78 µM

Q) Hi! What's the reported AC35 for C[C@@H]1CN([C@@H](C)CO)S(=O)(=O)c2ccc(C#Cc3ccncc3)cc2O[C@H]1CN(C)S(=O)(=O)c1ccccc1 on A673 NR0B1-luciferase reporter, viability-normalised luminescence?
A) 15.2 µM

Q) Value wanted: AC35 (A673 NR0B1-luciferase reporter, viability-normalised luminescence) of entry C[C@@H]1O[C@@H](O[C@@H]2C=C3CC[C@@H]4C(CC[C@]5(C)[C@@H](c6ccc(=O)oc6)CC[C@]45O)[C@@]3(C)CC2)[C@H](O)[C@H](O)[C@H]1O (some centres undefined)
A) < 0.03 µM

###

System: A673 NR0B1-luciferase reporter, viability-normalised luminescence
Test: suppressors of NR0B1-promoter luciferase reporter, dose response, EWS/Fli inhibitor project, luciferase luminescence, A673 cells, cherry-pick (AID 686920)
measured endpoint: AC35

Past entries and their recorded results:
C(=Cc1cnc2ccccc2n1)c1ccc2c(c1)OCO2 : 1.12 µM
CCCCCCCCCCCCCCCCCCNc1ccn(C2OC(COP(=O)(O)OCC3OC(n4cc(F)c(=O)[nH]c4=O)CC3O)C(O)C2O)c(=O)n1 (stereo not drawn) : 18.8 µM
COc1ccc(C=NNc2nc3ccccc3s2)cc1 : 6.43 µM
COc1ccc(C(CCNCc2ccc(OC(C)C)cc2)C(C)C)cc1 (stereo not drawn) : 15.2 µM
CCN1C/C(=C/c2ccc(OC)c(O)c2)C(=O)/C(=C/c2ccc(OC)c(O)c2)C1 : 17.3 µM
O=C(C1CC1)N1C[C@@H]2N[C@H](C1)C2c1ccc(/C=C/c2ccccc2)cc1 (stereo partly drawn) : 26.1 µM
C[C@@H]1CN([C@@H](C)CO)C(=O)c2cccc(NC(=O)Nc3cccc4ccccc34)c2O[C@@H]1CN(C)Cc1ccc(C(=O)Nc2ccccc2N)cc1 : 10.2 µM
C[C@@H]1CN([C@H](C)CO)S(=O)(=O)c2ccc(C#CC(C)(C)O)cc2O[C@H]1CN(C)Cc1ccc(-c2ccccc2)cc1 : 4.22 µM
O=C1c2ccccc2C(=O)c2cc(N3CCCCC3)ccc21 : 2.65 µM
Cc1[nH][nH]c(=O)c1C(c1c(C)[nH][nH]c1=O)c1cn(Cc2ccc(Cl)c(Cl)c2)c2ccccc12 : 4.99 µM

Q) Under A673 NR0B1-luciferase reporter, viability-normalised luminescence: AC35 value of COC(=O)C[C@@H]1CC[C@@H]2[C@H](COc3ccc(NC(=O)c4cc(C)on4)cc3C(=O)N2C)O1 ?
A) 7 µM

Q) For the record C[C@@H]1CN([C@H](C)CO)C(=O)c2cc(NC(=O)CCCCCC(=O)Nc3ccccc3N)ccc2O[C@H]1CN(C)S(=O)(=O)c1ccc(Cl)cc1 , what value of AC35 is listed for A673 NR0B1-luciferase reporter, viability-normalised luminescence?
A) 35.2 µM

Q) Give AC35 (A673 NR0B1-luciferase reporter, viability-normalised luminescence) of the following compound: COc1ccc(C2=Nn3c([n+](C)c4ccccc43)SC2)cc1
A) 46.5 µM

Q) Item: C[C@H]1CN([C@@H](C)CO)C(=O)c2cc(N(C)C)ccc2O[C@H]1CN(C)Cc1ccc(C(=O)Nc2ccccc2N)cc1 Test system: A673 NR0B1-luciferase reporter, viability-normalised luminescence Read-out: AC35 Value: ?
A) 15 µM

Q) Item: O=C(Nc1ccc2c(c1)OCO2)N1C[C@@H]2N[C@H](C1)C2c1ccc(C=Cc2ccccc2)cc1 (stereo partly drawn) Test system: A673 NR0B1-luciferase reporter, viability-normalised luminescence Read-out: AC35 Value: ?
A) 19 µM

###

System: A673 NR0B1-luciferase reporter, viability-normalised luminescence
Experiment: suppressors of NR0B1-promoter luciferase reporter, dose response, EWS/Fli inhibitor project, luciferase luminescence, A673 cells, cherry-pick (AID 686920)
measured endpoint: AC35

Q) I have this molecule here, CN1C(=O)c2cc(NC(=O)c3ccc(Cl)cc3)ccc2OC[C@@H]2O[C@@H](CC(=O)NCc3cccc(F)c3)CC[C@H]21 , and I need its recorded AC35.
A) 7.86 µM

Q) If you can, please state the reported AC35 value of COc1ccc(/C=C(/C(=O)c2cccs2)N2C=CC=CC2=C(C#N)C#N)cc1 .
A) 37.2 µM

Q) Given COc1ccc(CC(N)c2csc(NC(=O)Nc3cccc(C(F)(F)F)c3)n2)cc1 (stereo not given) , state its recorded AC35.
A) 9.72 µM

Q) Query: AC35; subject: C[C@@H]1CN([C@H](C)CO)C(=O)c2cc(NC(=O)c3ccccc3)ccc2O[C@@H](C)CCCCO[C@H]1CN(C)C(=O)Nc1cccc2ccccc12
A) 2.07 µM

Q) Which AC35 value is on record for Cc1cc(C(=O)Nc2ccc3c(c2)C(=O)N(C)[C@@H]2CC[C@H](CC(=O)N[C@H](C)c4ccccc4)O[C@H]2CO3)no1 ?
A) 10.2 µM

Q) Consider the molecule CCOc1ccc(/C=C2\CCc3ccccc3C2=O)cc1 and give its measured AC35.
A) 9.24 µM

Q) Name the recorded AC35 for COc1ccc(OC)c(/C=C/c2ccnc3ccccc23)c1 .
A) 2.4 µM

Q) Any idea what its AC35 is? The molecule is COc1ccc(/C=C2/SC(=S)N(CCCC(=O)Nc3ccccc3C(=O)O)C2=O)cc1
A) 5.83 µM

Q) Query: AC35; subject: C[C@H](CO)N1C[C@H](C)[C@H](CN(C)Cc2ccc(C(=O)Nc3ccccc3N)cc2)Oc2ccc(NS(=O)(=O)c3cccs3)cc2C1=O
A) 11.6 µM

Q) Which AC35 reading was recorded for the molecule Cc1ccc(NC(=O)CCN2CCCCC2)cc1 ?
A) 26.1 µM

Q) // AC35 lookup, key: Nc1ccc2oc(-c3cc(Br)ccc3Cl)nc2c1
A) 15 µM

Q) Any idea what AC35 was measured for O=C(CCc1ccccc1)NC(c1cccs1)c1cc(Cl)c2cccnc2c1O (stereo not given) ?
A) 5.42 µM

Q) For Cc1cc2sc3ccc(C#CC4(O)CCCCC4)cc3c(=O)c2cc1C , what is its reported AC35?
A) < 0.03 µM

Q) Look up AC35 for this molecule: O=C(NC1CCCC1)C(c1ccccc1)n1c(CSCCOc2ccccc2)nc2ccccc21 (stereo not given)
A) 2.19 µM

Q) Param item = COc1cc(OC)cc(-c2cc3nc(C)c(CCC(=O)NCc4ccccc4)c(C)n3n2)c1 ; retrieve measured AC35.
A) 3.44 µM

Q) I am curious: what AC35 value has been reported for CCc1ccc(S(=O)(=O)c2ccc(-n3nc(C)cc3N)cc2)cc1 ?
A) 31.4 µM

Q) Given O=C(O)c1ccc(N/N=C/c2c(F)cccc2Cl)cc1 , state its recorded AC35.
A) 4.61 µM

Q) Tell me the measured AC35 of COc1ccc(C2c3cc4c(cc3OC(NNC(N)=O)C2C)OCO4)cc1 (stereo not given) , please.
A) 14 µM

Q) Give its AC35 value. Item: CCN1C/C(=C/c2ccc(N3CCOCC3)cc2)C(=O)/C(=C/c2ccc(N3CCOCC3)cc2)C1
A) 5.5 µM

Q) Using the record for O=C(CCCN1C(=O)S/C(=C\c2ccccc2)C1=O)NNC(=O)c1ccccc1O , report its AC35.
A) 4.38 µM

###

Tested on: A673 NR0B1-luciferase reporter, viability-normalised luminescence
Assay: suppressors of NR0B1-promoter luciferase reporter, dose response, EWS/Fli inhibitor project, luciferase luminescence, A673 cells, cherry-pick (AID 686920)
Measured AC35, listed per entry.

CC(=O)OC1CC(OC2C(O)CC(OC3C(O)CC(OC4CCC5(C)C(CCC6C5CCC5(C)C(C7=CC(=O)OC7)C(O)CC65O)C4)OC3C)OC2C)OC(C)C1OC1OC(CO)C(O)C(O)C1O (configuration not stated) : 0.812 µM
C[C@H](CO)N1C[C@H](C)[C@@H](CN(C)Cc2ccc(C(F)(F)F)cc2)OCCCC[C@H](C)Oc2ccc(NS(=O)(=O)c3ccc(F)cc3)cc2C1=O : 16.6 µM
CN(C)c1ncnc2c1ccn2C1OC(CO)C(O)C1O (configuration not stated) : 3.44 µM
C[C@@H]1CN([C@@H](C)CO)C(=O)c2cccc(NS(=O)(=O)c3ccc(Cl)cc3)c2O[C@@H]1CN(C)Cc1ccc(C(=O)Nc2ccccc2N)cc1 : 5.31 µM
CC12CCC(O)CC1CCC1C2CCC2(C)C(C3=CC(=O)OC3)CCC12O (configuration not stated) : 0.391 µM

Q) Which measured AC35 belongs to CC(=O)OC1CC(OC2C(O)CC(OC3C(O)CC(OC4CCC5(C)C(CCC6C5CC(O)C5(C)C(C7=CC(=O)OC7)CCC65O)C4)OC3C)OC2C)OC(C)C1OC1OC(CO)C(O)C(O)C1O (configuration not stated) , tested on A673 NR0B1-luciferase reporter, viability-normalised luminescence?
A) 0.225 µM

Q) Which measured AC35 belongs to C[C@@H]1CN([C@@H](C)CO)C(=O)c2cccc(NS(=O)(=O)c3ccc(F)cc3)c2O[C@@H]1CN(C)Cc1ccc(C(=O)Nc2ccccc2N)cc1 , tested on A673 NR0B1-luciferase reporter, viability-normalised luminescence?
A) 6.97 µM
